Reference for the values: ChEMBL document CHEMBL3433997

Each item that follows carries a reported inhibition.
measurement target: Hexose transporter 1 (Plasmodium falciparum)
assay procedure: ST_JUDE_LEISH: Cytotoxicity at 2uM final concentration against transgenic Leishmania Mexicana promastigotes LmPfHT that are glucose transport deficient and complemented with the Plasmodium falciparum hexose transporter. Activity is measured by DNA content using SYBR green in vitro
Format: functional
Provide the reading as a plain figure in %.

Example cases with answers are listed next.
# query: inhibition of entry O=C(NCCc1ccccc1F)c1ccc(N2CCN(c3ccncc3)CC2)cn1
9.09

# query: inhibition of entry Cc1noc(-c2cccs2)c1C(=O)NC(C)c1cccc2ccccc12 (stereo not given)
0.45

# query: inhibition of entry CC(C)(C)c1ccc(CN2CCC(CNC(=O)c3cc(-c4ccccc4F)cs3)C2)cc1 (stereo not given)
-2.3

# query: inhibition of entry O=C(Nc1ccon1)c1cc(-c2cccnc2)nc2ccc(Br)cc12
5.32

Shifting focus to the compound that follows.
# query: inhibition of entry CC(=O)Nc1ccc(C(=O)Nc2cccc(-c3ccc(-c4nc5cc(F)ccc5[nH]4)cc3)c2)cn1
2.17
